system: Schistosoma mansoni schistosomula (NMRI); assay: phenotypic severity score (0-4); higher = more antischistosomal effect, active = 2 or more; details: 24 h; 10 µM
Would you kindly list phenotypic severity score for each of these compounds?
Answers are plain numbers.

Examples from the recorded data:
Cc1ccccc1C(=O)N1N=C(Nc2ccccc2)SC1(C)C
1
Nc1nccc2ccc(Oc3ccncc3)cc12
0
COc1ccc(C2(C(=O)Nc3ccc(Br)cc3)CCCC2)cc1
0
O=C(NCc1nnc2n1CCCCC2)c1ccc(-c2ccc(F)cc2)o1
1

Quick request: phenotypic severity score for each listed item, please.
1. O=C(C(Cc1c[nH]c2ccccc12)NS(=O)(=O)c1ccc(Cl)cc1)N1CCCCC1 (configuration not stated)
2. CCOc1ccc2cc(-c3nn(CC4CCN(C)CC4)c4ncnc(N)c34)ccc2c1
3. NS(=O)(=O)c1cccc(-c2ccc3ncc(N4CCOCC4)nc3c2)c1
4. Cc1ccccc1CN1CCC(O)(c2ccc(Cl)c(C(F)(F)F)c2)CC1
5. Cc1ccc(NC(=O)c2nc[nH]c2C(=O)Nc2nc3ccccc3[nH]2)c(C)c1
6. FC(F)(F)c1cnc(Sc2nnc(-c3ccncc3)o2)c(Cl)c1

1: 0; 2: 0; 3: 0; 4: 2; 5: 3; 6: 0

Quick request: phenotypic severity score for each listed item, please.
1. COC(=O)c1cccc2oc(-c3cccc(OC)c3NC(=O)c3cc(-c4ccccc4)on3)nc12
2. CNc1nnc(Sc2cnn(-c3ccccc3)c(=O)c2Cl)s1
3. O=C(NC1CC1)c1ccc(CSCc2ccccc2Cl)o1
4. O=C(Nc1c(O)cccc1-c1nc2c(C(=O)O)cccc2o1)c1cc(-c2ccccc2)on1
5. O=C1[C@@H](Oc2ccccc2)[C@@H](c2ccc(Cl)cc2)N1CCn1cnc2c(NCc3ccccc3)ncnc21
6. O=C(Nc1cccc(-c2ccc(NCCCN3CCCC3)nc2)c1)c1ccccc1

1. 0
2. 4
3. 1
4. 0
5. 3
6. 1

----------
system: Schistosoma mansoni schistosomula (Liberian); experiment: drug effect (1 - score/DMSO control score) (fraction); higher = more antischistosomal effect, active = 0.5 or more; extreme values may be limits of the assay; settings: 24 h; 10 µM
Select the correct class. Options are 1 (yes) for active, 0 (no) for inactive and nothing else.

Could you kindly confirm the outcome this assay logged for CCOC(=O)c1noc(N)c1-c1ccccc1 ?
0 (no)

----------
tested on: Schistosoma mansoni schistosomula (Liberian); assay: drug effect (1 - score/DMSO control score) (fraction); higher = more antischistosomal effect, active = 0.5 or more; extreme values may be limits of the assay; conditions: 24 h; 10 µM
Would you kindly list drug effect for each of these compounds?

COc1ccc(C2=NN(C3CCCCCC3)C(=O)C2(C)C)cc1OCCCCOc1ccc(-c2nn[nH]n2)cc1
0.182 (inactive)
NCC(c1cccs1)S(=O)(=O)c1ccccc1 (stereo unspecified)
0.15 (inactive)
CC(C)(C(=O)Nc1ccc(F)cc1)n1cc(-c2ccccc2F)cn1
0.135 (inactive)
CC(C)(C)n1nc(Cc2cccc3ccccc23)c2c(N)ncnc21
0.15 (inactive)
C[C@H](C(N)=O)N1CCCC[C@@H]1c1ccc(OCc2cccc(F)c2)cc1
0.2 (inactive)

Please turn your attention to the following entry.
Value lookup for drug effect; key = Clc1ccc(CN2CCN(C3=NCCN3)CC2)cc1Cl
0.1 (inactive)

----------
system: Schistosoma mansoni schistosomula (NMRI); assay: phenotypic severity score (0-4); higher = more antischistosomal effect, active = 2 or more; conditions: 48 h; 10 µM
Would you kindly list phenotypic severity score for each of these compounds?
Answers are plain numbers.

Quick request: phenotypic severity score for each listed item, please.
1. COc1cc(-c2cc(-c3ccc(S(C)(=O)=O)cc3)cnc2N)ccc1O
2. NC(=O)c1cc(Br)ccc1OCCOc1ccccc1
3. O=C(NCc1ccco1)N1CCN(Cc2ccc(Cl)s2)CC1
4. Brc1cncc(-c2cc(NCCCn3ccnc3)nc(-c3ccccc3)n2)c1
5. O=C(NC1CCCCC1)N1CCN(Cc2ccc3c(c2)OCO3)CC1
6. CC(Oc1cccc(Cl)c1)C(=O)Nc1ccc2oc(-c3ccncc3)nc2c1 (stereo unspecified)

1. 1
2. 1
3. 0
4. 4
5. 0
6. 0

Quick request: phenotypic severity score for each listed item, please.
1. COc1cc(C2=NCCN2)ccc1-c1cn(-c2cccc(C3=NCCN3)c2)nn1
2. CC(C)(C(=O)Nc1ccc(F)cc1)n1cc(-c2ccccc2F)cn1
3. CC(C)(C)OC(=O)N1CCN(c2nccc(-c3ccc(-c4ccc(Cl)cc4)s3)n2)CC1

1. 0
2. 0
3. 0

Quick request: phenotypic severity score for each listed item, please.
1. Cc1ccc2nc(Cl)c(CNCc3cccs3)cc2c1
2. COc1ccc(Oc2ccc([C@@H](C)N(C)c3ncc4c(N)nc(N)nc4n3)cc2)cc1

1. 0
2. 4

----------
test system: Schistosoma mansoni schistosomula (Liberian); assay: drug effect (1 - score/DMSO control score) (fraction); higher = more antischistosomal effect, active = 0.5 or more; extreme values may be limits of the assay; details: 24 h; 10 µM
Property Label: drug effect

O=C(c1ccco1)N(CCCn1ccnc1)c1nc2c(Cl)cccc2s1
0.0909 (inactive)
Cc1ccc2oc(-c3cc(NC(=O)Cc4ccccc4)ccc3Cl)nc2c1
0.227 (inactive)
COc1cccc(-c2cc3c(Nc4cccnc4)nccc3[nH]2)c1
0.1 (inactive)
OCCc1ccc(Nc2nccc(-c3nnc4ccccn34)n2)cc1
0.2 (inactive)
CCCn1c(NC(=O)c2ccc3ccccc3n2)nc2ccccc21
0.2 (inactive)

Value lookup for drug effect; key = COc1ccc(-c2nc(-c3cccc(NC(=O)Cc4ccc(F)cc4)c3)no2)cc1OC
0.182 (inactive)

----------
test system: Schistosoma mansoni schistosomula (NMRI); assay: phenotypic severity score (0-4); higher = more antischistosomal effect, active = 2 or more; details: 72 h; 10 µM
Select the correct class. Options are 1 (active), 0 (inactive) and nothing else.

Would you please look over these solved cases?
COC(=O)c1ccc(F)cc1NS(=O)(=O)c1cccc(-c2cnn(Cc3ccccc3)c2)c1
0
O=C(Nc1cccc(-c2ccc(NCCCN3CCCC3)nc2)c1)c1ccccc1
1
CN1CCCN(C(c2ccccc2)c2ccc(Cl)cc2)CC1 (centres undefined)
0
CCCn1c(CNc2ccccc2O)nc2ccccc21
0
Cc1ccccc1CN1CCC(O)(c2ccc(Cl)c(C(F)(F)F)c2)CC1
0

Could you kindly confirm the outcome this assay logged for Cc1cc(OCC(=O)NCc2ccccc2)c2cc(Br)ccc2n1 ?
0

Could you kindly confirm the outcome this assay logged for O=C(C1CCCCC1)N1CC(=O)N2CCc3ccccc3C2C1 (centres undefined) ?
1

Could you kindly confirm the outcome this assay logged for c1ccc(-c2cc(N3CCCCC3)c3ccccc3n2)nc1 ?
0

Could you kindly confirm the outcome this assay logged for Nc1nccc2ccc(-c3ccc4nccn4c3)cc12 ?
1

Could you kindly confirm the outcome this assay logged for O=C(C(Cc1c[nH]c2ccccc12)NS(=O)(=O)c1ccc(Cl)cc1)N1CCCCC1 (centres undefined) ?
0

Could you kindly confirm the outcome this assay logged for Cc1cc(OCC(=O)Nc2ccc(C(C)C)cc2)n(C)c(=O)c1C#N ?
0

Could you kindly confirm the outcome this assay logged for CCOc1ccccc1NC(C)C(=O)Nc1cc(C(F)(F)F)ccc1N1CCOCC1 (centres undefined) ?
0

Could you kindly confirm the outcome this assay logged for CCc1nc2ccccc2n1CC(O)COc1cc(C)ccc1Cl (centres undefined) ?
0

----------
test system: Schistosoma mansoni schistosomula (NMRI); assay: phenotypic severity score (0-4); higher = more antischistosomal effect, active = 2 or more; details: 48 h; 10 µM
Select the correct class. Options are 1 for active, -1 for inactive and nothing else.

Could you kindly confirm the outcome this assay logged for COc1ccc(C2=NN(C3CCCCCC3)C(=O)[C@@H]3CC=CC[C@H]23)cc1OCCCCOc1ccc(-c2nn[nH]n2)cc1 ?
-1

Could you kindly confirm the outcome this assay logged for O=C(NCCc1c[nH]c2ccccc12)c1cc2ccccc2oc1=O ?
-1

Could you kindly confirm the outcome this assay logged for c1ccc(Oc2ccc(-c3cncc(-c4ccc5[nH]ccc5c4)n3)cc2)cc1 ?
-1

Could you kindly confirm the outcome this assay logged for Nc1ncc(Br)cc1-c1nc2cc(Cl)cnc2[nH]1 ?
-1

Could you kindly confirm the outcome this assay logged for FC(F)(F)c1ccc(N(c2cccnc2)C2CCN(c3ccc(C(F)(F)F)cn3)CC2)cc1 ?
-1

Could you kindly confirm the outcome this assay logged for c1ccc(-c2[nH]c3ccccc3c2C(c2ccccn2)N2CCCC2)cc1 (stereo not given) ?
1

Could you kindly confirm the outcome this assay logged for c1cncc(NCc2ccc(-c3cc4ccncc4cc3OC3CCNCC3)s2)c1 ?
1

----------
test system: Schistosoma mansoni schistosomula (Liberian); assay: drug effect (1 - score/DMSO control score) (fraction); higher = more antischistosomal effect, active = 0.5 or more; extreme values may be limits of the assay; details: 24 h; 10 µM
Select the correct class. Options are 1 = active, 0 = inactive and nothing else.

CC(C)(C)n1nc(-c2ccccc2)c2c(N)ncnc21
0
O=C(C1CCN(c2nnc(-n3cccc3)s2)CC1)N1CCC(Cc2ccccc2)CC1
0
O=C(C1CCCCC1)N1CC(=O)N2CCc3ccccc3C2C1 (centres undefined)
0
COc1ccc(Oc2ccc([C@@H](C)N(C)c3ncc4c(N)nc(N)nc4n3)cc2)cc1
1
CC1CCCN(C(=O)C(C)Nc2cc(Cl)ccc2N2CCOCC2)C1 (centres undefined)
0
Cc1cc(NCCc2ccccc2)nc(NC(=N)Nc2ccc(Cl)cc2)n1
1
O=C(c1[nH]nc2c1CCCC2)N1CCN(Cc2ccc3c(c2)OCO3)CC1
0
COc1ccc(C2=NN(C3CCCCCC3)C(=O)[C@@H]3CC=CC[C@H]23)cc1OCCCCOc1ccc(-c2nn[nH]n2)cc1
0
COc1ccc(C2CC(c3cccs3)=NN2C(=O)c2ccco2)cc1OC (centres undefined)
0
c1ccc(-c2cc(N3CCCCC3)c3ccccc3n2)nc1
0

Could you kindly confirm the outcome this assay logged for Nc1ncnc2c1ncn2C[C@@H](O)[C@@H](O)C(=O)O ?
0

Could you kindly confirm the outcome this assay logged for CO[C@H]1/C=C/O[C@@]2(C)Oc3c(C)c(O)c4c(O)c(/c(=C/NN5CCN(C)CC5)c(O)c4c3C2=O)=N\C(=O)/C(C)=C\C=C/[C@H](C)[C@H](O)[C@@H](C)[C@@H](O)[C@@H](C)[C@H](OC(C)=O)[C@@H]1C ?
0

Could you kindly confirm the outcome this assay logged for CC(C)(C)C1CCC(CC2=C(O)C(=O)c3ccccc3C2=O)CC1 (centres undefined) ?
0

Could you kindly confirm the outcome this assay logged for CC(C)(C)c1cc(C(=O)Nc2cccnc2)cc(C(=O)Nc2cccnc2)c1 ?
0

Could you kindly confirm the outcome this assay logged for Cc1nn(C)cc1C(C)Nc1nncc(-c2ccc(C(F)(F)F)cc2)n1 (centres undefined) ?
0

Could you kindly confirm the outcome this assay logged for CCOc1ccc2cc(-c3nn(CC4CCN(C)CC4)c4ncnc(N)c34)ccc2c1 ?
0

Could you kindly confirm the outcome this assay logged for CCN(CC)S(=O)(=O)c1ccc(C(=O)Nc2cc(C)nn2-c2nc(C)c(C)c(=O)[nH]2)cc1 ?
0

Could you kindly confirm the outcome this assay logged for C[C@H]1c2cccc(O)c2C(=O)C2=C(O)[C@]3(O)C(=O)C(C(N)=O)=C(O)[C@@H](N(C)C)[C@@H]3[C@@H](O)[C@@H]21 ?
0

Could you kindly confirm the outcome this assay logged for CS(=O)(=O)c1cccc(-c2cnc3[nH]cc(-c4ccc(CCC(=O)O)cc4)c3c2)c1 ?
0
